tested on: Staph. aureus; assay: Agar dilution MIC; assay type: cell-based; details: Staphylococcus aureus, strain X1.1; read-out: Agar Dilution MIC
Record form. Attribute: MIC. Fill in for each entry.
State the answer as a number, implicitly in µg/mL.

Quick note, MIC for COC1=C(C(=O)O)N2C(=O)[C@@H](NC(=O)[C@H](N)c3c[nH]c4ccccc34)C2SC1 (stereo partly shown) landed at 4

Noted for N[C@@H](C(=O)N[C@@H]1C(=O)N2C(C(=O)O)=C(Cl)CSC12)c1c[nH]c2ccccc12 (stereo partly shown) : its MIC reads 4

Measured MIC, CC1=C(C(=O)O)N2C(=O)[C@@H](NC(=O)[C@H](N)c3ccccc3)[C@H]2SC1 [Cephalexin, reference compound] : 2

Consider CC1=C(C(=O)O)N2C(=O)[C@@H](NC(=O)[C@H](N)c3c[nH]c4ccccc34)C2SC1 (stereo partly shown) . Its measured MIC is 4
